[
  {
    "molecule": "CC(O)Cn1c(CO)nc(C(C)C)c1Sc1cc(Cl)cc(Cl)c1 (stereo unspecified)",
    "melting point": "159 to 161 °C"
  },
  {
    "molecule": "CCC(OCCc1ccc(-c2ccc(Cl)cc2)cc1)C(=O)O (stereo unspecified)",
    "melting point": "90 to 92 °C"
  },
  {
    "molecule": "CC(C)OCCOc1c(-c2ccc(S(C)(=O)=O)cc2)cnn(-c2ccc(F)c(F)c2)c1=O",
    "melting point": "105 to 107 °C"
  },
  {
    "molecule": "CCCCc1nnc2c(Cl)nc3ccccc3n12",
    "melting point": "144 to 146 °C"
  },
  {
    "molecule": "Cc1cc(-c2cc(C(F)(F)F)n3ncc(-c4ccnc(CO)c4)c3n2)ccc1C(F)(F)F",
    "melting point": "231 °C"
  },
  {
    "molecule": "Cc1cc(C)cc(S(=O)(=O)c2ccc(N)cc2)c1",
    "melting point": "178 to 179 °C"
  },
  {
    "molecule": "COC(=O)C(C)c1ccc(OCCNC(=O)C2Cc3ccccc3N2S(=O)(=O)c2ccc(-c3cccc(C(F)(F)F)c3)cc2)cc1 (stereo unspecified)",
    "melting point": "71 to 74 °C"
  },
  {
    "molecule": "CC1OC(Cc2cccc3c2C(=O)c2ccccc2C3=O)CC(N)C1O (stereo unspecified)",
    "melting point": "> 280 °C"
  },
  {
    "molecule": "ON=C(Cc1ccccc1)c1ccccc1",
    "melting point": "94 to 96 °C"
  },
  {
    "molecule": "CC(=O)NC[C@H]1CN(c2ccc(C3CCN(C=O)CC3)c(F)c2)C(=O)O1",
    "melting point": "186 to 187 °C"
  },
  {
    "molecule": "CCCc1cc(=O)n(-c2cc(OC(C)C)c(Cl)cc2F)c(=O)n1C",
    "melting point": "115 to 117 °C"
  },
  {
    "molecule": "CN(C(=O)OC(C)(C)C)c1cc(Sc2ccc(O)cc2)ccc1N",
    "melting point": "62 to 67 °C"
  },
  {
    "molecule": "O=C1Cc2cccc(Nc3ccc(Cl)cc3)c2N1",
    "melting point": "190 to 192 °C"
  },
  {
    "molecule": "O=C(CCN1CCN(c2cccc(Cl)c2Cl)CC1)N1CCc2ccccc21",
    "melting point": "157 to 158 °C"
  },
  {
    "molecule": "CCn1cc(C(=O)O)c(=O)c2cc(F)c(N3CCNC(CN(C)C)C3)cc21 (stereo unspecified)",
    "melting point": "148 to 150 °C"
  },
  {
    "molecule": "COCCCCCCCCCCCCCCSCCCO",
    "melting point": "35 to 37 °C"
  },
  {
    "molecule": "O=C(c1ccccc1)c1ccc(SCCO)cc1",
    "melting point": "49 to 51 °C"
  },
  {
    "molecule": "CCOc1c(/C=C\\CO)cc(C(C)(C)C)cc1C(C)(C)C",
    "melting point": "93 to 94 °C"
  },
  {
    "molecule": "CCOC(=O)C1=C(C)NC(C)=C(C(=O)OCC)C1c1ccc(Br)cc1",
    "melting point": "164 to 165 °C"
  },
  {
    "molecule": "COc1ccc2c(c1)c(CC(=O)O)c(C)n2C(=O)c1ccccc1",
    "melting point": "158 to 160 °C"
  },
  {
    "molecule": "COc1ccc(NC(C)CC(=O)NC(=O)OC(C)(C)C)cc1 (stereo unspecified)",
    "melting point": "70 to 71 °C"
  }
]

---

# maps each entry to its melting point

[
  {
    "molecule": "CCOC(=O)C(C(=O)OCC)C(=O)C(C)Oc1cc(Cl)c(Cl)cc1Cl (stereo not drawn)",
    "melting point": "62 to 66 °C"
  },
  {
    "molecule": "CS(=O)c1cc(O)ccc1-c1nc2cnccc2[nH]1 (stereo not drawn)",
    "melting point": "215 °C"
  },
  {
    "molecule": "Cc1ccccc1-n1c(C)nc2c(c1=O)N(Cc1ccccc1)NN2",
    "melting point": "178 to 180 °C"
  },
  {
    "molecule": "CC(=O)[C@@H]1CC(=S)N(C(C)=O)C1",
    "melting point": "49 to 51 °C"
  },
  {
    "molecule": "NC/C=C/COc1ccc(-n2ccnc2)cc1",
    "melting point": "81 to 83 °C"
  },
  {
    "molecule": "CC(C)NCC(O)COc1cccnc1N (stereo not drawn)",
    "melting point": "110 °C"
  },
  {
    "molecule": "Cc1[nH]c2c(ccc3sc4ccccc4c32)c1C=O",
    "melting point": "192 to 194 °C"
  },
  {
    "molecule": "CCOC(=O)C(=O)NNc1ccc(N)cc1",
    "melting point": "97 to 99 °C"
  },
  {
    "molecule": "Clc1cccc2c(CN3CCN(c4cc5ccccc5cn4)CC3)n[nH]c12",
    "melting point": "208 to 209 °C"
  },
  {
    "molecule": "CCN(C(=O)Cc1c(F)cccc1F)C(c1cnccc1C(F)(F)F)C(C)C (stereo not drawn)",
    "melting point": "122 °C"
  },
  {
    "molecule": "COc1c(C)cnc(CSc2nc3ncc(O)cc3[nH]2)c1C",
    "melting point": "178 to 180 °C"
  },
  {
    "molecule": "CN1Cc2c(C(=O)OC(C)(C)C)ncn2-c2ccccc2C1=S",
    "melting point": "207 to 208 °C"
  },
  {
    "molecule": "O=S(=O)(c1ccc(Oc2cncc(Br)c2)cc1)N1CCCC1",
    "melting point": "148 °C"
  },
  {
    "molecule": "CCCCCc1c(-c2ccc3c(Br)c(OCC#N)ccc3c2)oc2ccccc12",
    "melting point": "111 to 113 °C"
  },
  {
    "molecule": "CC(C)n1nc(-c2sc(N)nc2-c2cccc(F)c2)ccc1=O",
    "melting point": "237 to 238 °C"
  },
  {
    "molecule": "CCOC(=O)c1nnc(C(=O)OCC)nn1",
    "melting point": "85 to 90 °C"
  },
  {
    "molecule": "CCCCOC(=O)C=Cc1c(-c2ccccc2)nn2ccccc12",
    "melting point": "80 to 82 °C"
  },
  {
    "molecule": "COc1cc2c(cc1C(F)(F)F)N(C(=O)Nc1ccccc1CCN(C)C)CC2",
    "melting point": "166 to 168 °C"
  },
  {
    "molecule": "N#CC(C#N)C(=O)c1ccc2ccccc2c1",
    "melting point": "121 °C"
  },
  {
    "molecule": "CCC1CN(c2c(F)cc3c(=O)c(C(=O)O)cn(C4CC4F)c3c2OC)CC1(C)N (stereo not drawn)",
    "melting point": "113 to 115 °C"
  },
  {
    "molecule": "Nc1ccc(-c2cn(C3CCN(Cc4ccccc4)CC3)c3ncnc(N)c23)cc1F",
    "melting point": "141 to 142 °C"
  },
  {
    "molecule": "C#CCN1C(=O)COc2cc(F)c(-n3nc4n(c3=O)CCS4)cc21",
    "melting point": "211 to 213 °C"
  },
  {
    "molecule": "CC(=O)N(C)c1cc([N+](=O)[O-])cc([N+](=O)[O-])c1",
    "melting point": "134 to 136 °C"
  },
  {
    "molecule": "O=C(Cc1ccccc1Cl)N1CCCc2ncc3ccccc3c21",
    "melting point": "176 to 178 °C"
  },
  {
    "molecule": "CN(C(=O)Oc1ccc(Cl)c(C(C)(C)C)c1)c1ccc(F)cc1",
    "melting point": "92 to 94 °C"
  },
  {
    "molecule": "CCCCCC1CCc2cc(C(=O)Oc3ccc(CCCC)cc3)ccc2C1 (stereo not drawn)",
    "melting point": "48.1 °C"
  },
  {
    "molecule": "Nc1cc(C(=O)c2cccc(C(=O)c3ccc(Cl)c(N)c3)c2)ccc1Cl",
    "melting point": "209 °C"
  },
  {
    "molecule": "Cc1ccc(-n2c(=O)nc(N(C)C)n(C)c2=O)cc1C",
    "melting point": "189 to 191 °C"
  },
  {
    "molecule": "N#CS/C=C\\C(=O)Oc1ccccc1",
    "melting point": "79 to 83 °C"
  },
  {
    "molecule": "c1ccc2[nH]c(CN3CCN(c4nccs4)CC3)nc2c1",
    "melting point": "203 to 205 °C"
  },
  {
    "molecule": "C#CCOc1cc(-n2c(=O)cc(C(F)(F)F)n(C)c2=O)c(F)cc1Br",
    "melting point": "134 °C"
  },
  {
    "molecule": "Oc1cccc(NCCc2ccccc2)n1",
    "melting point": "97 to 99 °C"
  },
  {
    "molecule": "CCCCSc1ccc2[nH]c(=O)oc(=O)c2c1",
    "melting point": "196 to 200 °C"
  },
  {
    "molecule": "c1nc(SCC2CCCCC2)n[nH]1",
    "melting point": "74 to 78 °C"
  },
  {
    "molecule": "CCOC(=O)N1CCc2nc3ccc(N)cc3c(C)c2CC1",
    "melting point": "214 to 216 °C"
  },
  {
    "molecule": "CCOC(=O)c1cc(CC)sc1Nc1c(Cl)cccc1[N+](=O)[O-]",
    "melting point": "67 to 70 °C"
  },
  {
    "molecule": "COc1ccc(C2=NN(C3CCCCCC3)C(=O)[C@H]3CC=CC[C@@H]23)cc1OCC1CC1 (relative stereo)",
    "melting point": "102 to 103 °C"
  },
  {
    "molecule": "CCCCCCCCCCOc1cc2oc3c(C(=O)O)cccc3c(=O)c2cc1CCC(=O)O",
    "melting point": "180 to 182 °C"
  },
  {
    "molecule": "O=C1CCC(N2Cc3cc(CNC(=O)Nc4ccc(F)cc4)ccc3C2=O)C(=O)N1 (stereo not drawn)",
    "melting point": "262 to 264 °C"
  },
  {
    "molecule": "Cc1ccc(CN2CCC(NC(=O)NC(=O)c3ccccc3)CC2)cc1C",
    "melting point": "239 to 240 °C"
  },
  {
    "molecule": "C=CCOc1cc(C=O)ccc1O",
    "melting point": "66 to 67 °C"
  },
  {
    "molecule": "Cc1oc(C=Cc2ccccc2Cl)nc1CC(=O)O",
    "melting point": "148 to 149 °C"
  },
  {
    "molecule": "CCCCCS(=O)(=O)NCCCc1ccc(OCCOC)cc1Oc1ncc(C(F)(F)F)cc1Cl",
    "melting point": "87 to 90 °C"
  }
]

Data provenance: a melting point compilation (Tetko et al.; mined from patent text by program, amines drawn as free bases though some values may be those of a salt)
